The entries below come with measured EC50 (nM), OVCAR 5 cells (cAMP) values attached.
- Assayed Target: T1, RXFP1 receptor (UniProt Q9HBX9 1-757, limits assumed)
- T1 sequence (looked up): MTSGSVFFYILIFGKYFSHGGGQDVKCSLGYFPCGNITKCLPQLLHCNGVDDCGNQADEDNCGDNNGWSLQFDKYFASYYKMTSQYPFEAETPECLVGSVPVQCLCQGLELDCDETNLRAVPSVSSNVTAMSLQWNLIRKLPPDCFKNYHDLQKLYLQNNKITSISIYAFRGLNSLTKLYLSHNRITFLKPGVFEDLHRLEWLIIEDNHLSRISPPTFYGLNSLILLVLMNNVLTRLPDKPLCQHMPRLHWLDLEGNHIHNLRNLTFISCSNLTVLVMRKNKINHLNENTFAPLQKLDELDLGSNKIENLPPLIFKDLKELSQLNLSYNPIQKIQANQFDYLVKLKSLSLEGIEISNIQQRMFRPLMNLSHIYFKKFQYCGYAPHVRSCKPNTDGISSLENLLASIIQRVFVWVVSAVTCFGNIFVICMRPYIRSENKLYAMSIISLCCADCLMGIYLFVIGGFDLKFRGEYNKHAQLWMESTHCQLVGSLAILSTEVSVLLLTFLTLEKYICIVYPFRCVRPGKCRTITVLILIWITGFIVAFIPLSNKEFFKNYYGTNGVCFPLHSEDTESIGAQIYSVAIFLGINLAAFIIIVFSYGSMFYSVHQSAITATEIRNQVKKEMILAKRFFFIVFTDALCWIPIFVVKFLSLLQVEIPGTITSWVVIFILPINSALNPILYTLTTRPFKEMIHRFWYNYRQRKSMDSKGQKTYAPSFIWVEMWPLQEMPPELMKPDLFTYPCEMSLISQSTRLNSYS
- Assay Text: cell-based or functional assay
*1 amine or outer side, *2 acyl side, *3 side chain or, on linkers, in order; H or OH if unused. Primed or numbered codes have the meaning given here. Side-chain parts run from the residue outwards. [ ]: non-standard residue; d: D form. The star is where a group is joined. PEG2DGA = 2-[2-[3-[2-[2-(3-aminopropoxy)ethoxy]ethoxy]propylamino-2-oxo-ethoxy]acetyl; TTDS″ = 4-[3-[2-[2-(3-aminopropoxy)ethoxy]ethoxy]propylamino]-4-oxo-butanoyl; Lys(Me3) = C[N+](C)(C)CCCC[C@H](N)C(=O)O; Heptadecanoyl = CCCCCCCCCCCCCCCCC(=O)*; γGlu = O=C(O)[C@H](CCC(=O)[*:2])N[*:1]; Pentadecanoyl = CCCCCCCCCCCCCCC(=O)*; Stearoyl = CCCCCCCCCCCCCCCCCC(=O)*; αMeK = C[C@](N)(CCCCN)C(=O)O; Nle = CCCC[C@H](N)C(=O)O; PEG2′ = PEG2 spacer unit; Aib = CC(C)(N)C(=O)O
Value Kind: EC50 (nM), OVCAR 5 cells (cAMP)

INSERT INTO results (binder, numeric_readout) VALUES
  ('Ac-LEGREKVRAK(Ac)I[Aib][Aib]EG[Nle]STWS[Aib]RKK(Ac)K([PEG2′-PEG2′-PEG2′-γGlu-γGlu-γGlu-Heptadecanoyl])-NH2 [peptide of SEQ ID NO: 164]', 0.79),
  ('Ac-LEGREKVRAK(Ac)I[Aib][Aib]EGQSTFS[αMeK]RAK(Ac)K([TTDS″-TTDS″-TTDS″-γGlu-γGlu-γGlu-Pentadecanoyl])-NH2 [peptide of SEQ ID NO: 189]', 0.42),
  ('Ac-LEGREKVRAK(Ac)I[Aib][Aib]EG[Nle]STWS[Aib]AAK(Ac)K([PEG2DGA-PEG2DGA-γGlu-γGlu-γGlu-Stearoyl])-NH2 [peptide of SEQ ID NO: 156]', 0.06),
  ('Ac-LEGREKVRAK(Ac)I[Aib][Aib]EG[Nle]STWS[Aib]R[Lys(Me3)]K(Ac)K([PEG2′-PEG2′-PEG2′-γGlu-γGlu-γGlu-Stearoyl])-NH2 [peptide of SEQ ID NO: 134]', 6.3);
